Tested on: Plasmodium falciparum
Assay: Antimalarial activity against Plasmodium falciparum 106/1 assessed as incorporation of [3H]hypoxanthine after 48 hrs by scintillation counter
Type: functional, organism-based
observable: IC50 (nM)
Report only the number, with the unit nM understood.

Guide cases for IC50, answers given:
INSERT INTO assay_data (molecule, reading_unit, numeric_readout) VALUES
  ('C[C@H]1[C@@H](O)O[C@@H]2O[C@@]3(C)CC[C@H]4[C@H](C)CC[C@@H]1[C@@]24OO3', 'nM', 0.9),
  ('CCNCc1cc(Nc2ccnc3cc(Cl)ccc23)ccc1O', 'nM', 23),
  ('OC(c1cc(C(F)(F)F)nc2c(C(F)(F)F)cccc12)C1CCCCN1 (stereo unspecified)', 'nM', 14),
  ('CC(C)c1c(C(=O)Nc2ccccc2)c(-c2ccccc2)c(-c2ccc(F)cc2)n1CC[C@@H](O)C[C@@H](O)CC(=O)O', 'nM', 2500),
  ('O=C1C(O)=C([C@H]2CC[C@H](c3ccc(Cl)cc3)CC2)C(=O)c2ccccc21', 'nM', 2.4);

Moving on to another molecule below.
**Q:** // Input: CCCCN(CCCC)CC(O)c1cc(Cl)cc2c1-c1ccc(Cl)cc1/C2=C/c1ccc(Cl)cc1 (stereo unspecified) . Output its IC50 only.
**A:** 8

###

Tested on: Plasmodium falciparum
Experiment: Antimalarial activity against Plasmodium falciparum IMT K2 harboring Ppcrt M74I, N75E, K76T, A220S, Q271E, N326S mutant gene, Pmdr1 S1034C, N1042D mutant gene and Pfmrp H191Y and S437A mutant gene assessed as incorporation of [3H]hypoxanthine after 48 hrs by scintillation counter
Assay type: functional, organism-based
observable: pIC50
Please express pIC50 as -log10 of the molar concentration.

**Q:** // Input: CC(C)c1c(C(=O)Nc2ccccc2)c(-c2ccccc2)c(-c2ccc(F)cc2)n1CC[C@@H](O)C[C@@H](O)CC(=O)O . Output its pIC50 only.
**A:** 5.07

###

Tested on: Plasmodium falciparum
Assay: Antimalarial activity against Plasmodium falciparum IMT 16332 assessed as incorporation of [3H]hypoxanthine after 48 hrs by scintillation counter
Assay type: functional, organism-based
pIC50: −log10 of the molar value.
Rule: true for pIC50 not less than 8, false for anything less.

Previously resolved entries follow.
INSERT INTO measurements (given_smiles, target_under_test, group_label) VALUES
  ('C[C@H]1[C@@H](O)O[C@@H]2O[C@@]3(C)CC[C@H]4[C@H](C)CC[C@@H]1[C@@]24OO3', 'Plasmodium falciparum', 'true'),
  ('CCNCc1cc(Nc2ccnc3cc(Cl)ccc23)ccc1O', 'Plasmodium falciparum', 'false'),
  ('CC(C)c1c(C(=O)Nc2ccccc2)c(-c2ccccc2)c(-c2ccc(F)cc2)n1CC[C@@H](O)C[C@@H](O)CC(=O)O', 'Plasmodium falciparum', 'false');

**Q:** Form field: pIC50 at least 8? Entry: O=C1C(O)=C([C@H]2CC[C@H](c3ccc(Cl)cc3)CC2)C(=O)c2ccccc21
**A:** true

###

// reported log10 IC50 for each item listed
Tested on: Plasmodium falciparum
Assay: Antimalarial activity against Plasmodium falciparum W2 assessed as incorporation of [3H]hypoxanthine after 48 hrs by scintillation counter
Format: functional, organism-based
Answers are given as log10 of IC50 in nM.

Guide cases for log10 IC50, answers given:
INSERT INTO measurements (compound, numeric_readout) VALUES
  ('CC(C)c1c(C(=O)Nc2ccccc2)c(-c2ccccc2)c(-c2ccc(F)cc2)n1CC[C@@H](O)C[C@@H](O)CC(=O)O', 3.40),
  ('C[C@H]1[C@@H](O)O[C@@H]2O[C@@]3(C)CC[C@H]4[C@H](C)CC[C@@H]1[C@@]24OO3', -0.05);

**Q:** // Input: CCCCN(CCCC)CC(O)c1cc(Cl)cc2c1-c1ccc(Cl)cc1/C2=C/c1ccc(Cl)cc1 (stereo unspecified) . Output its log10 IC50 only.
**A:** 0.90

**Q:** // Input: OC(c1cc(C(F)(F)F)nc2c(C(F)(F)F)cccc12)C1CCCCN1 (stereo unspecified) . Output its log10 IC50 only.
**A:** 1.15

**Q:** // Input: CCNCc1cc(Nc2ccnc3cc(Cl)ccc23)ccc1O . Output its log10 IC50 only.
**A:** 1.36

**Q:** // Input: O=C1C(O)=C([C@H]2CC[C@H](c3ccc(Cl)cc3)CC2)C(=O)c2ccccc21 . Output its log10 IC50 only.
**A:** 0.38

###

Test system: Plasmodium falciparum
Test: Antimalarial activity against Plasmodium falciparum IMT Vol harboring Ppcrt M74I, N75E, K76T, A220S, Q271E, N326S mutant gene, Pmdr1 N86Y mutant gene and Pfmrp H191Y and S437A mutant gene assessed as incorporation of [3H] hypoxanthine after 48 hrs by scintillation counter
Format: functional, organism-based
observable: pIC50
Please express pIC50 as -log10 of the molar concentration.

**Q:** // Input: CC(C)c1c(C(=O)Nc2ccccc2)c(-c2ccccc2)c(-c2ccc(F)cc2)n1CC[C@@H](O)C[C@@H](O)CC(=O)O . Output its pIC50 only.
**A:** 5.12

###

Tested on: Plasmodium falciparum
Experiment: Antimalarial activity against Plasmodium falciparum IMT L1 harboring Ppcrt M74I, N75E, K76T, A220S, Q271E mutant gene, Pmdr1 N86Y mutant gene and Pfmrp H191Y and S437A mutant gene assessed as incorporation of [3H]hypoxanthine after 48 hrs by scintillation counter
Type: functional, organism-based
observable: pIC50
Please express pIC50 as -log10 of the molar concentration.

**Q:** // Input: CC(C)c1c(C(=O)Nc2ccccc2)c(-c2ccccc2)c(-c2ccc(F)cc2)n1CC[C@@H](O)C[C@@H](O)CC(=O)O . Output its pIC50 only.
**A:** 5.09

###

// reported pIC50 for each item listed
Tested on: Plasmodium falciparum
Assay: Antimalarial activity against Plasmodium falciparum FCR3 assessed as incorporation of [3H]hypoxanthine after 48 hrs by scintillation counter
Assay type: functional, organism-based
Please express pIC50 as -log10 of the molar concentration.

**Q:** // Input: C[C@H]1[C@@H](O)O[C@@H]2O[C@@]3(C)CC[C@H]4[C@H](C)CC[C@@H]1[C@@]24OO3 . Output its pIC50 only.
**A:** 9.05

**Q:** // Input: CCNCc1cc(Nc2ccnc3cc(Cl)ccc23)ccc1O . Output its pIC50 only.
**A:** 7.64

**Q:** // Input: O=C1C(O)=C([C@H]2CC[C@H](c3ccc(Cl)cc3)CC2)C(=O)c2ccccc21 . Output its pIC50 only.
**A:** 8.62

**Q:** // Input: CC(C)c1c(C(=O)Nc2ccccc2)c(-c2ccccc2)c(-c2ccc(F)cc2)n1CC[C@@H](O)C[C@@H](O)CC(=O)O . Output its pIC50 only.
**A:** 5.60

**Q:** // Input: OC(c1cc(C(F)(F)F)nc2c(C(F)(F)F)cccc12)C1CCCCN1 (stereo unspecified) . Output its pIC50 only.
**A:** 7.85

**Q:** // Input: CCCCN(CCCC)CC(O)c1cc(Cl)cc2c1-c1ccc(Cl)cc1/C2=C/c1ccc(Cl)cc1 (stereo unspecified) . Output its pIC50 only.
**A:** 8.10

###

Tested on: Plasmodium falciparum
Assay: Antimalarial activity against Plasmodium falciparum IMT 8425 harboring Ppcrt I371R mutant gene and Pfnhe-1 ms4760 microsatellite mutant assessed as incorporation of [3H]hypoxanthine after 48 hrs by scintillation counter
Type: functional, organism-based
observable: IC50 (µM)
Report only the number, with the unit µM understood.

**Q:** // Input: CC(C)c1c(C(=O)Nc2ccccc2)c(-c2ccccc2)c(-c2ccc(F)cc2)n1CC[C@@H](O)C[C@@H](O)CC(=O)O [ATORVASTATIN] . Output its IC50 only.
**A:** 9.7

###

System: Plasmodium falciparum
Test: Antimalarial activity against Plasmodium falciparum IMT 10500 assessed as incorporation of [3H]hypoxanthine after 48 hrs by scintillation counter
Assay type: functional, organism-based
pIC50: −log10 of the molar value.
Rule: yes (1) for pIC50 not less than 8, no (0) for anything less.

Previously resolved entries follow.
INSERT INTO measurements (given_smiles, group_label) VALUES
  ('O=C1C(O)=C([C@H]2CC[C@H](c3ccc(Cl)cc3)CC2)C(=O)c2ccccc21', 'yes (1)'),
  ('CC(C)c1c(C(=O)Nc2ccccc2)c(-c2ccccc2)c(-c2ccc(F)cc2)n1CC[C@@H](O)C[C@@H](O)CC(=O)O', 'no (0)');

**Q:** Form field: pIC50 at least 8? Entry: C[C@H]1[C@@H](O)O[C@@H]2O[C@@]3(C)CC[C@H]4[C@H](C)CC[C@@H]1[C@@]24OO3
**A:** yes (1)

**Q:** Form field: pIC50 at least 8? Entry: CCNCc1cc(Nc2ccnc3cc(Cl)ccc23)ccc1O
**A:** no (0)

Hey, just so you know, these numbers are from ChEMBL document CHEMBL1649448.
